Molecular target: hV1a (Homo sapiens)
Assay: Inhibition of vasopressin-mediated Ca2+-mobilization by FLIPR (CHO cells expressing hV1a)
Settings: fluo-4, AVP 40 nM
Text: d) Functional Assay No. 1: Inhibition of Vasopressin-Mediated Ca^2+-mobilization by FLIPR (Fluorescent Imaging Plate Reader) FLIPR is a machine for fluorescence imaging using a laser that is capable of illuminating a 96-well plate and a means of simultaneously reading each well thus enabling rapid measurements on a large number of samples. […] The fluorescent marker being sensitive to the amount of Ca^2+ mobilized within the cell may be quantified by the FLIPR machine. […]
pIC50: −log10 of the molar value.
quantityKind: pIC50

Consider the following illustrative entries.
C/C(=N/NC(=O)CN(c1cccc(Cl)c1)S(=O)(=O)c1ccccc1)c1ccccc1O = 6.43
COc1ccc(/C=N/NC(=O)CN(c2cccc(Cl)c2)S(=O)(=O)c2ccccc2)cc1OC = 6.26

a: COc1ccc(N(CC(=O)Nc2ccc(Cl)cc2C)S(=O)(=O)c2ccccc2)cc1
b: COc1ccc(/C=N/NC(=O)CN(c2cccc(Br)c2)S(=O)(=O)c2ccccc2)cc1OC
Prompt: Given a and b , report the one with the higher recorded pIC50. Write down the label attached to your selection.
Response: a
(a: 7.05, b: 6.36)

###

molecular target: hV1a (Homo sapiens, UniProt P37288)
Sequence (P37288 whole entry): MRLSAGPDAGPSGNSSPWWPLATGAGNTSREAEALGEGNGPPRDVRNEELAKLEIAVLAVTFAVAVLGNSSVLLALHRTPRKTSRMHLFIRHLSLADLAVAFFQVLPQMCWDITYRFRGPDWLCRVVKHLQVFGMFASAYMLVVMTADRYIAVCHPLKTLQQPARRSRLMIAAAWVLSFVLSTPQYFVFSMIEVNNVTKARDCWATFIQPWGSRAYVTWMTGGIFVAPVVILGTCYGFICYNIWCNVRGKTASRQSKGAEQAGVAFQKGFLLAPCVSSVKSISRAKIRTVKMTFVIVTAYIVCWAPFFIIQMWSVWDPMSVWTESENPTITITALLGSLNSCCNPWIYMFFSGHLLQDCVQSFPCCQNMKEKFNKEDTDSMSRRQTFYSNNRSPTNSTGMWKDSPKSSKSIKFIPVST
quantityKind: Ki (nM)

CCOc1ccc(S(=O)(=O)N(CC(=O)N/N=C2/C(=O)Nc3ccccc32)c2ccc(C)cc2)cc1 [Example 5] = 750

I: Cc1ccc(N(CC(=O)NCC(O)c2ccccc2)S(=O)(=O)c2ccc(C)cc2)cc1 (centres unmarked)
II: COc1ccc(N(CC(=O)Nc2ccc(C)cc2C)S(=O)(=O)c2ccc(OC)c(OC)c2)cc1
III: C/C(=N\NC(=O)CN(c1ccc(Br)cc1)S(=O)(=O)c1ccccc1)c1ccccc1O [drawing 139]
Prompt: Put the compounds in ascending order of Ki. Returns: the labels arranged in the requested order.
Response: II, I, III
(II: 135 nM, I: 370 nM, III: 800 nM)

###

Target: UniProtKB P30559
Sequence (P30559 1-389): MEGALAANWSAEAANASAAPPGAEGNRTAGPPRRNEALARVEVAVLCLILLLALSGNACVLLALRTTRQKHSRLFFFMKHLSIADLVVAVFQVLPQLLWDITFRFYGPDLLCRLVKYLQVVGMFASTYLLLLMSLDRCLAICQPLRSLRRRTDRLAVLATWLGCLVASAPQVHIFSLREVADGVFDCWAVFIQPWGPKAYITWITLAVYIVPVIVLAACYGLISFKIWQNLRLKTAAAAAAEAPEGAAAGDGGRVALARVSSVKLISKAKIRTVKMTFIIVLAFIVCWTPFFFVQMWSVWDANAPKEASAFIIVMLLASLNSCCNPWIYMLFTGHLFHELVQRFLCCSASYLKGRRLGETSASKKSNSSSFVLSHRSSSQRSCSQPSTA
quantityKind: Ki (µM)

Consider the following illustrative entries.
O=C(CN(c1ccc(Br)cc1)S(=O)(=O)c1ccccc1)Nc1cccc2cccnc12 = 0.192
COC(=O)c1cccc2c1NC(=O)/C2=N\NC(=O)CN(c1ccc(Cl)cc1)S(=O)(=O)c1ccc(OCCCN(C)C)cc1 [Example 70] = 0.108
O=C(CN(c1ccc(Cl)cc1)S(=O)(=O)c1ccc(OCCN2CCOCC2)cc1)NN=C1C(=O)Nc2ccccc21 [Example 55] = 0.0008
Cc1ccc(N(CC(=O)N/N=C2\C(=O)Nc3ccccc32)S(=O)(=O)c2ccc(OCCCN(C)C)cc2)cc1 [Example 59] = 0.0003
O=C(CN(c1ccc(Cl)cc1)S(=O)(=O)c1ccc(OCCCc2cccnc2)cc1)N/N=C1\C(=O)Nc2ccccc21 [Example 63] = 0.0028

I: Cc1ccc(N(CC(=O)N2CCc3ccccc3C2)S(=O)(=O)c2ccccc2)cc1
II: O=C(CN(c1ccc(Cl)cc1)S(=O)(=O)c1cccs1)N/N=C1\C(=O)Nc2ccccc21 [Example 36]
III: CN(C)CCCOc1ccc(S(=O)(=O)N(CC(=O)N/N=C2\C(=O)Nc3ccccc32)c2ccc(Cl)cc2)cc1 [Example 67]
IV: CN(C)CCOc1ccc(S(=O)(=O)N(CC(=O)N/N=C2\C(=O)Nc3ccccc32)c2ccc(Cl)cc2)cc1 [Example 57]
Prompt: Put the compounds in ascending order of Ki. Returns: the labels arranged in the requested order.
Response: III, IV, II, I
(III: 0.0006 µM, IV: 0.0018 µM, II: 0.0293 µM, I: 0.472 µM)
